Experiment Summary: RP, Waters ACQUITY UPLC BEH C18, 38 °C, 0.24 mL/min; A: water + 0.1% formic acid, pH 3; B: acetonitrile + 0.1% formic acid, pH 3; gradient (min/%B) 0/0 0.25/0 0.4/9 0.8/17 1.9/100 2.1/100 2.11/0 3/0
Condition Context: stereoisomer not certain
// label = true (1) if LC retention time is not less than 1 min, otherwise false (0)

>  <Molecule>
Nc1ccn(C2OC(CO)C(O)C2O)c(=O)n1 (configuration not stated)

>  <Answer Label>
false (0)

$$$$
>  <Molecule>
Cc1ncc(CO)c(CO)c1O

>  <Answer Label>
false (0)

$$$$
>  <Molecule>
CCCCCCCCCC(=O)OCC(O)COP(=O)([O-])OCC[N+](C)(C)C (configuration not stated) [Phosphocholine,1-Decanoyl-2-Hydroxy-sn-Glycero-3-]

>  <Answer Label>
true (1)

$$$$
>  <Molecule>
NC(CCC(=O)NC(CSSCC(NC(=O)CCC(N)C(=O)O)C(=O)NCC(=O)O)C(=O)NCC(=O)O)C(=O)O (configuration not stated) [Glutathione (oxidized form)]

>  <Answer Label>
false (0)

$$$$
>  <Molecule>
CCCCCCCCCCCCCCCCC

>  <Answer Label>
true (1)

$$$$
>  <Molecule>
COc1ccc(-c2cc(=O)c3c(O)cc(OC4OC(COC5OC(C)C(O)C(O)C5O)C(O)C(O)C4O)cc3o2)cc1 (configuration not stated)

>  <Answer Label>
true (1)

$$$$
>  <Molecule>
NCCC(=O)O

>  <Answer Label>
false (0)

$$$$
>  <Molecule>
CN1C2CCC1CC(=O)C2

>  <Answer Label>
false (0)

$$$$
>  <Molecule>
NC(=O)NCCC[C@H](N)C(=O)O

>  <Answer Label>
false (0)

$$$$
>  <Molecule>
NCCc1cnc[nH]1

>  <Answer Label>
false (0)

$$$$
>  <Molecule>
Nc1ncnc2c1ncn2C1OC(CO)C(O)C1O (configuration not stated)

>  <Answer Label>
true (1)

$$$$
>  <Molecule>
Nc1ncnc2nc[nH]c12

>  <Answer Label>
false (0)

$$$$
>  <Molecule>
O=C(O)c1ccc(O)c(O)c1 [3,4-Dihydroxybenzoic acid]

>  <Answer Label>
true (1)

$$$$
>  <Molecule>
NCCCCC(=O)O

>  <Answer Label>
false (0)

$$$$
>  <Molecule>
O=C(O)CCCCCCCCC(=O)O

>  <Answer Label>
true (1)

$$$$
>  <Molecule>
O=C(O)CCl

>  <Answer Label>
false (0)

$$$$
>  <Molecule>
CC(C)C(O)(CC(=O)O)C(=O)O (configuration not stated)

>  <Answer Label>
true (1)

$$$$

* * *

Experiment Summary: RP, Waters ACQUITY UPLC BEH C18, 38 °C, 0.24 mL/min; A: water + 0.1% formic acid, pH 3; B: acetonitrile + 0.1% formic acid, pH 3; gradient (min/%B) 0/0 0.25/0 0.4/9 0.8/17 1.9/100 2.1/100 2.11/0 3/0
Condition Context: stereoisomer not certain
Outcome Measure: log10(LC retention time) (log10 of the value in min)

>  <Compound>
CC1OC(OCC2OC(Oc3cc4c(O)cc(O)cc4[o+]c3-c3cc(O)c(O)c(O)c3)C(O)C(O)C2O)C(O)C(O)C1O (centres undefined)

>  <Number>
0.06

$$$$
>  <Compound>
Nc1ccn(C2CC(O)C(CO)O2)c(=O)n1 (centres undefined)

>  <Number>
-0.35

$$$$
>  <Compound>
NCCc1ccc(O)cc1

>  <Number>
-0.17

$$$$
>  <Compound>
O=c1ccn(C2OC(CO)C(O)C2O)c(=O)[nH]1 (centres undefined)

>  <Number>
-0.18

$$$$
>  <Compound>
O=C(O)/C=C/c1ccccc1 [trans-Cinnamic acid]

>  <Number>
0.21

$$$$
>  <Compound>
COc1cc(-c2[o+]c3cc(O)cc(O)c3cc2O)cc(OC)c1O [Malvidin Chloride]

>  <Number>
0.33

$$$$
>  <Compound>
O=C(CCc1ccccc1)c1c(O)cc(O)cc1OC1OC(CO)C(O)C(O)C1O (centres undefined)

>  <Number>
0.18

$$$$
>  <Compound>
CCC=CCC1C(=O)CCC1CC(=O)OC (centres undefined) [Methyl Jasmonate]

>  <Number>
0.29

$$$$
>  <Compound>
CC(N)CC(=O)O (racemic)

>  <Number>
-0.74

$$$$

* * *

Experiment Summary: RP, Waters ACQUITY UPLC BEH C18, 38 °C, 0.24 mL/min; A: water + 0.1% formic acid, pH 3; B: acetonitrile + 0.1% formic acid, pH 3; gradient (min/%B) 0/0 0.25/0 0.4/9 0.8/17 1.9/100 2.1/100 2.11/0 3/0
Condition Context: stereoisomer not certain
Counter-ions that a name gives are not always drawn.
// label = T if LC retention time is not less than 1 min, otherwise F

>  <Compound>
CCCCCCC(=O)O

>  <Answer Label>
F

$$$$
>  <Compound>
Nc1ncnc2c1ncn2C1OC(CO)C(OP(=O)(O)O)C1O (stereo unspecified) [Adenosine 3'-monophosphate From Yeast]

>  <Answer Label>
F

$$$$
>  <Compound>
O=c1ccn(C2OC(COP(=O)(O)O)C(O)C2O)c(=O)[nH]1 (stereo unspecified) [Uridine-5'-monophosphate]

>  <Answer Label>
F

$$$$
>  <Compound>
CC1(C(=O)O)CCC2(C)CCC3(C)C(=CC(=O)C4C5(C)CCC(OC6OC(C(=O)O)C(O)C(O)C6OC6OC(C(=O)O)C(O)C(O)C6O)C(C)(C)C5CCC43C)C2C1 (stereo unspecified)

>  <Answer Label>
T

$$$$
>  <Compound>
Nc1nc2c(ncn2C2OC(COP(=O)(O)OP(=O)(O)OC3OC(CO)C(O)C(O)C3O)C(O)C2O)c(=O)[nH]1 [Guanosine-5'-diphosphate-D-mannose sodium salt]

>  <Answer Label>
F

$$$$
>  <Compound>
CSCC[C@H](N)CC(=O)O [L-beta-homomethionine-HCl]

>  <Answer Label>
F

$$$$
>  <Compound>
OCC1OC(OC2C(O)C(O)COC2(O)CO)C(O)C(O)C1O (stereo unspecified)

>  <Answer Label>
F

$$$$
>  <Compound>
OCC(O)C(O)C(O)CO (stereo unspecified)

>  <Answer Label>
F

$$$$
>  <Compound>
Nc1ccccc1C(=O)O

>  <Answer Label>
T

$$$$
>  <Compound>
CCCCc1ccc(C(=O)O)nc1

>  <Answer Label>
T

$$$$
>  <Compound>
C[N+](C)(C)[O-] [Trimethylamine N-oxide dihydrate]

>  <Answer Label>
F

$$$$
>  <Compound>
NCCc1c[nH]c2ccc(O)cc12 [Serotonin hydrochloride]

>  <Answer Label>
T

$$$$
>  <Compound>
Nc1ncnc2c1ncn2C1CC(O)C(CO)O1 (stereo unspecified) [2'-Deoxyadenosine monohydrate]

>  <Answer Label>
T

$$$$
>  <Compound>
NCCCC(=O)O

>  <Answer Label>
F

$$$$
>  <Compound>
O=C(O)c1cc(O)ccc1O [2,5-dihydroxy benzoic acid]

>  <Answer Label>
T

$$$$
>  <Compound>
O=C(O)CCCCC1CCSS1 (racemic) [(+-)-alpha-Lipoic acid]

>  <Answer Label>
T

$$$$
>  <Compound>
C[N+](C)(C)C[C@H](O)CC(=O)[O-] [L-Carnitine hydrochloride]

>  <Answer Label>
F

$$$$
>  <Compound>
Cc1ncc(C[n+]2csc(CCO)c2C)c(N)n1 [Thiamine hydrochloride]

>  <Answer Label>
F

$$$$
>  <Compound>
CC(=O)OC(CC(=O)O)C[N+](C)(C)C [O-Acety-L-carnitine hydrochloride]

>  <Answer Label>
F

$$$$
>  <Compound>
Nc1nc2c(ncn2C2OC(CO)C(O)C2O)c(=O)[nH]1 (stereo unspecified)

>  <Answer Label>
T

$$$$
>  <Compound>
CCCCCCN

>  <Answer Label>
T

$$$$
>  <Compound>
NOCC(=O)O [Aminooxyacetic acid Hemihydrochloride]

>  <Answer Label>
F

$$$$
>  <Compound>
O=c1cc(-c2ccc(O)c(OC3OC(CO)C(O)C(O)C3O)c2)oc2cc(OC3OC(CO)C(O)C(O)C3O)cc(O)c12 (stereo unspecified) [luteolin-3',7-di-O-glucoside]

>  <Answer Label>
T

$$$$
>  <Compound>
O=P(O)(O)OCC1OC(O)CC1O (stereo unspecified) [2-Deoxyribose-5-phosphate sodium salt]

>  <Answer Label>
F

$$$$
>  <Compound>
OCCN(CCO)CCO

>  <Answer Label>
F

$$$$
>  <Compound>
CC[C@H](C)[C@H](N)CC(=O)O [L-beta-Homoisoleucine hydrochloride]

>  <Answer Label>
T

$$$$
>  <Compound>
NC(=O)C[C@H](N)C(=O)O

>  <Answer Label>
F

$$$$
>  <Compound>
NC(N)=NCC(=O)O

>  <Answer Label>
F

$$$$
>  <Compound>
COc1ccc(-c2coc3cc(OC4OC(CO)C(O)C(O)C4O)ccc3c2=O)cc1 (stereo unspecified)

>  <Answer Label>
T

$$$$
>  <Compound>
OC1COC(OC2COC(O)C(O)C2O)C(O)C1O (stereo unspecified)

>  <Answer Label>
F

$$$$
>  <Compound>
O=c1c(-c2ccc(O)cc2)coc2cc(OC3OC(CO)C(O)C(O)C3O)ccc12 (stereo unspecified)

>  <Answer Label>
T

$$$$
>  <Compound>
NC(=NCCCC(N)C(=O)O)NC(CC(=O)O)C(=O)O (stereo unspecified) [Argininosuccinic acid disodium salt]

>  <Answer Label>
F

$$$$
>  <Compound>
Nc1ncn[nH]1

>  <Answer Label>
F

$$$$
>  <Compound>
NCCS(=O)(=O)O

>  <Answer Label>
F

$$$$
>  <Compound>
CCCCCCCCCCCCCCCC(O)C(CO)NC(=O)CCCCCCC (stereo unspecified)

>  <Answer Label>
F

$$$$
>  <Compound>
O=C(C=Cc1ccc(O)cc1)OCC1OC(Oc2c(-c3ccc(O)cc3)oc3cc(O)cc(O)c3c2=O)C(O)C(O)C1O (stereo unspecified) [Tiliroside]

>  <Answer Label>
T

$$$$
